- Tested on: HT29 colon
- experiment.notes: NCI tumour cell line growth inhibition, 48 h
Entries and their measured TGI follow.

> print(dat)
                               compound  assay.result
1  COc1cccc(/C=C/C(=O)c2ccc(SC)cc2)c1OC       48.8 µM

Ask | Fill in TGI for record Cc1ccc(C(=O)Nc2ccc(CP(=O)(O)O)cc2)cc1NC(=O)c1cccc(N)c1
Reply | > 100 µM

Ask | Fill in TGI for record CCOC(=O)/C=C(\C(=O)OCC)n1ccc(=O)n(Cc2cnnn2CCCCOC(C)=O)c1=O
Reply | 23.5 µM

Ask | Fill in TGI for record COC(=O)c1c(C(=O)OC)c2ccccn2c1-c1cc(OC)c(Br)c(=O)o1
Reply | > 100 µM

Ask | Fill in TGI for record O=c1[nH]c2ccccc2c2nc3ccccc3n12
Reply | > 100 µM

Ask | Fill in TGI for record COc1ccc2c(c1)c(-c1nc(-c3c[nH]c4ncccc34)cs1)cn2CCCN1CCCCC1
Reply | 3.53 µM

Ask | Fill in TGI for record Cc1ccc2oc(=O)cc(/C(=C3/C=CC=N3)c3ccc[nH]3)c2c1
Reply | 1.42 µM

Ask | Fill in TGI for record O=C1C(=C(C(F)(F)Cl)C(F)(F)Cl)C2CCC1C2 (configuration not stated)
Reply | 5.57 µM

Ask | Fill in TGI for record O=C(Nc1ccc(Cc2ccccc2)cc1)Nc1nn(C(=O)Nc2ccc(Cc3ccccc3)cc2)c2ccccc12
Reply | > 100 µM

Ask | Fill in TGI for record C=C(CO)CC(O)c1cc(OC)ccc1OC (configuration not stated)
Reply | > 100 µM

Ask | Fill in TGI for record BrC(Br)=C1C(=C(Br)Br)C(Br)C1Br (configuration not stated)
Reply | 1.49 µM

Ask | Fill in TGI for record C=CC(O)(CBr)CCC(Br)C(=C)C (configuration not stated)
Reply | > 10 µM

Ask | Fill in TGI for record C=CCNC(=S)N1CC(C)C(=O)Nc2cc(Cl)ccc21 (configuration not stated)
Reply | > 100 µM

Ask | Fill in TGI for record CC1CN=C(NS(=O)(=O)c2cc(C(=O)Nc3ccc(Cl)cc3)c(Cl)cc2S)NN1 (configuration not stated)
Reply | > 100 µM

Ask | Fill in TGI for record COc1cc2c(cc1OC)C1C(=O)c3c(O)cc4c(c3OC1CO2)C=CC(C)(C)O4 (configuration not stated)
Reply | > 100 µM

Ask | Fill in TGI for record CC1(C)[C@@H]2C[C@H]1[C@@H](Cc1cccc(C[C@H]3c4cc(-c5ccccn5)ncc4[C@H]4C[C@@H]3C4(C)C)c1)c1cc(-c3ccccn3)ncc12
Reply | > 100 µM

Ask | Fill in TGI for record COC(=O)c1ccc2c(c1)C(=O)c1c-2n(CCCCl)c(=O)c2cc([N+](=O)[O-])ccc12
Reply | > 100 µM

Ask | Fill in TGI for record O=C1CSC(c2c[nH]c3ccccc23)N1c1ccc(Cl)cc1 (configuration not stated)
Reply | > 100 µM

Ask | Fill in TGI for record COC(=O)C1CCC(=S)N1C(=O)OCc1ccccc1 (configuration not stated)
Reply | > 100 µM

Ask | Fill in TGI for record COC(OC)c1cc2c(cc1C=O)OCO2
Reply | > 100 µM

Ask | Fill in TGI for record C1CSCCSCCCSC2CCCCC2SC1 (configuration not stated)
Reply | 60.9 µM

Ask | Fill in TGI for record O=C(/C=C/c1ccc(Cl)cc1)c1ccccc(=O)c1O
Reply | 10.8 µM

---

- System: MDA-MB-231 breast
- experiment.notes: NCI tumour cell line growth inhibition, 48 h
Entries and their measured TGI follow.

Use the examples below as a reference point.
molecule	TGI
COc1cc(Oc2c(C)c(Cl)c(OC)c(Cl)c2OC)c2c(c1Cl)COC2=O	> 100 µM
COC(=O)C1Cc2ccc(O)c(O)c2CN1 (configuration not stated)	43.3 µM
O=c1[nH]c2ccccc2c2nc3ccccc3n12	> 100 µM
N#CC(N=Nc1ccccc1C(=O)O)C(N)=O (configuration not stated)	> 100 µM
CN(CCCCCl)P(=O)(OCCS(=O)(=O)CC(NC(=O)CCC(N)C(=O)O)C(=O)NC(C(=O)O)c1ccccc1)OCC1OC(n2ccc(N)nc2=O)C(O)C1O (configuration not stated)	> 75 µM

Ask | Fill in TGI for record Cc1c(-c2ccc(C3CCCCC3)cc2)nc2ccc(F)cc2c1C(=O)O
Reply | > 100 µM

Ask | Fill in TGI for record Cc1ccc(C2(c3ccc(Cl)cc3)c3ccccc3C3=NCCN32)cc1 (configuration not stated)
Reply | 19.4 µM

Ask | Fill in TGI for record Oc1ccc(Nc2ccc3ccccc3c2)cc1
Reply | 27.8 µM

Ask | Fill in TGI for record COc1cc(C)c(/C=C2/N=C(c3ccccc3)OC2=O)c([N+](=O)[O-])c1OC
Reply | > 100 µM

Ask | Fill in TGI for record NS(=O)(=O)c1nnc(NC(=O)C23CC4CC(CC(C4)C2)C3)s1
Reply | > 100 µM

Ask | Fill in TGI for record COc1cc(CSc2ccc(O)cc2)cc(OC)c1OC
Reply | > 100 µM

Ask | Fill in TGI for record COc1cc(-c2nc3ccc(N4CCN(C)CC4)cc3[nH]2)c(OC)c2[nH]c(COC(C)=O)nc12
Reply | > 100 µM

Ask | Fill in TGI for record NC(N)=NCC1CCCCCCN1 (configuration not stated)
Reply | > 100 µM

---

- Tested on: CAKI-1 renal
- experiment.notes: NCI tumour cell line growth inhibition, 48 h
Entries and their measured TGI follow.

> print(dat)
                                   molecule        system  assay.result
1  COc1ccc(/C=C2/CSCC3=C2NC(=S)NC3c2ccc(OC)c(OC)c2OC)c(OC)c1OC (stereo not given)  CAKI-1 renal       92.2 µM
2       CCOP(=O)(OCC)/C(C#N)=C/c1cccn1C(C)C  CAKI-1 renal      > 100 µM
3            S=C(NCCc1ccccn1)N/N=C/c1ccccn1  CAKI-1 renal     < 0.01 µM
4  O=C(Nc1ccc(Cc2ccccc2)cc1)Nc1nn(C(=O)Nc2ccc(Cc3ccccc3)cc2)c2ccccc12  CAKI-1 renal      > 100 µM
5  O=C/C1=C/C2=Cc3ccccc3C=C(/C=C(/C=O)C1)C2  CAKI-1 renal      > 100 µM

Ask | Name the value of TGI reported for CCOC(=O)C(=O)Nc1nc2c(OCC)cccc2s1 when tested on CAKI-1 renal.
Reply | > 100 µM

Ask | Name the value of TGI reported for CC(Oc1ccccc1Cl)C(=O)NN1C(=O)CC(=O)N(c2ccccc2)C1=S (stereo not given) when tested on CAKI-1 renal.
Reply | > 100 µM

---

Entries and their measured GI50 follow.
- Tested on: HL-60(TB) leukemia
- experiment.notes: NCI tumour cell line growth inhibition, 48 h

Use the examples below as a reference point.
> print(dat)
                                   molecule  assay.result
1     Cc1c(O)c(N=Nc2nc3ccccc3s2)c2ccccc2c1O       > 50 µM
2  CC1=CC(C)=NN=C(N)N1S(=O)(=O)c1cc(C)c(Cl)cc1SCc1ccccc1       6.75 µM

// next entry
Ask | Fill in GI50 for record NC(=NCc1ccccc1)C(N=Nc1ccccc1)C(=O)NCc1ccccc1 (stereo not drawn)
Reply | 4.64 µM

---

Entries and their measured TGI follow.
- Test system: NCI-H226 lung
- experiment.notes: NCI tumour cell line growth inhibition, 48 h
Numbers only; they are read as µM.

Use the examples below as a reference point.
> print(dat)
                                   compound  measurement.name  unit.abbreviation  assay.result
1  S=C1NC2=C(COc3ccccc32)C(c2ccc(Cl)cc2)N1 (stereo not given)               TGI                 µM            36
2  Cc1ccc(C2(c3ccc(Cl)cc3)c3ccccc3C3=NCCN32)cc1 (stereo not given)               TGI                 µM          35.6

Ask | Fill in TGI for record COc1ccc(/C=C2\CN(C(=O)C(Cl)Cl)C/C(=C\c3ccc(OC)cc3)C2=O)cc1
Reply | 7.65

Ask | Fill in TGI for record CC(=O)/C(=C/c1ccccc1)C(=O)CC(C)C
Reply | 71.4

---

- Tested on: NCI-H226 lung
- experiment.notes: NCI tumour cell line growth inhibition, 48 h
measurement.name: TGI

compound	TGI
Cc1[nH]c(=O)[nH]c(=O)c1/C=C/C(=O)O (tested in a mixture with another compound)	> 625 µM
N=C(N)c1ccc(-c2ccc(/C=C/c3ccccc3)s2)cc1	46 µM
COC(=O)C1Cc2ccc(O)c(O)c2CN1 (stereo unspecified)	> 100 µM
CC(C)N1CCN(c2ccncc2S(=O)(=O)N2CCCCC2)CC1	> 100 µM

Ask | Name the value of TGI reported for CCN1CCC(Nc2ccnc3cc(Cl)ccc23)CC1 when tested on NCI-H226 lung.
Reply | > 100 µM

Ask | Name the value of TGI reported for CCOC(=O)C(=O)Nc1nc2c(OCC)cccc2s1 when tested on NCI-H226 lung.
Reply | > 100 µM

Ask | Name the value of TGI reported for O=C(/C=C\c1cccc2ccccc12)c1ccc(F)cc1 when tested on NCI-H226 lung.
Reply | > 100 µM
